- Tested on: UACC-62
- method: Antiproliferative activity against human UACC-62 cells assessed as cell growth inhibition at 10 uM by SRB assay relative to control
- Type: functional
Cut-off 50% on inhibition at 10 µM, inclusive. At or above means criterion met; below means criterion not met.

(Q) Check the entry COc1cc2oc(-c3cccc(C(=O)Nc4ccc(Cl)cc4)c3)cc(=O)c2c(O)c1OC : does inhibition at 10 µM equal or exceed 50%?
(A) criterion met

(Q) Check the entry COc1cc2oc(-c3cccc(C(=O)Nc4ccc(C)cc4)c3)cc(=O)c2c(OC)c1OC : does inhibition at 10 µM equal or exceed 50%?
(A) criterion met

(Q) Check the entry COc1cc2oc(-c3cccc(NC(=O)c4ccc(Br)cc4)c3)cc(=O)c2c(OC)c1OC : does inhibition at 10 µM equal or exceed 50%?
(A) criterion not met

(Q) Check the entry COc1cc2oc(-c3cccc(C(=O)Nc4ccc(Cl)cc4)c3)cc(=O)c2c(OC)c1OC : does inhibition at 10 µM equal or exceed 50%?
(A) criterion met

(Q) Check the entry COc1cc2oc(-c3cccc(NC(=O)c4ccc([N+](=O)[O-])cc4)c3)cc(=O)c2c(OC)c1OC : does inhibition at 10 µM equal or exceed 50%?
(A) criterion met

(Q) Check the entry CN(C)/N=N/c1[nH]cnc1C(N)=O : does inhibition at 10 µM equal or exceed 50%?
(A) criterion not met

* * *

- System: OVCAR-4
- method: Antiproliferative activity against human OVCAR-4 cells assessed as cell growth inhibition at 10 uM by SRB assay relative to control
- Assay type: functional
propertyMeasured: inhibition at 10 µM

(Q) // returns reported inhibition at 10 µM for input CC(=O)O[C@H]1C(=O)[C@@]2(C)[C@H]([C@H](OC(=O)c3ccccc3)[C@]3(O)C[C@H](OC(=O)[C@H](O)[C@@H](NC(=O)c4ccccc4)c4ccccc4)C(C)=C1C3(C)C)[C@]1(OC(C)=O)CO[C@@H]1C[C@@H]2O [PACLITAXEL]
(A) 113%

(Q) // returns reported inhibition at 10 µM for input COc1cc2oc(-c3cccc(NC(=O)c4ccc(Br)cc4)c3)cc(=O)c2c(OC)c1OC
(A) 52.9%

(Q) // returns reported inhibition at 10 µM for input COc1cc2oc(-c3cccc(C(=O)Nc4ccc(Cl)cc4)c3)cc(=O)c2c(O)c1OC
(A) 130%

(Q) // returns reported inhibition at 10 µM for input COc1cc2oc(-c3cccc(C(=O)Nc4ccc(C#N)cc4)c3)cc(=O)c2c(O)c1OC
(A) 88.3%

(Q) // returns reported inhibition at 10 µM for input COc1cc2oc(-c3cccc(NC(=O)c4ccc([N+](=O)[O-])cc4)c3)cc(=O)c2c(OC)c1OC
(A) 57.3%

* * *

- Tested on: CCRF-CEM
- method: Antiproliferative activity against human CCRF-CEM cells assessed as cell growth inhibition at 10 uM by SRB assay
- Type: functional, cell-based
Active and inactive are the calls of the source. The rule behind the calls is not given here.
Outcome (select one): class 1 for active, class 0 for inactive

(Q) Could you please tell me the result logged for COc1cc2oc(-c3cccc(NC(=O)c4ccc(Cl)cc4)c3)cc(=O)c2c(OC)c1OC in this assay?
(A) class 1

(Q) Could you please tell me the result logged for COc1cc2oc(-c3cccc(NC(=O)c4ccc(C#N)cc4)c3)cc(=O)c2c(OC)c1OC in this assay?
(A) class 1

(Q) Could you please tell me the result logged for COC(=O)c1ccc(C(=O)Nc2cccc(-c3cc(=O)c4c(OC)c(OC)c(OC)cc4o3)c2)cc1 in this assay?
(A) class 1

(Q) Could you please tell me the result logged for COc1cc2oc(-c3cccc(C(=O)Nc4ccc(Br)cc4)c3)cc(=O)c2c(OC)c1OC in this assay?
(A) class 1

(Q) Could you please tell me the result logged for COc1cc2oc(-c3cccc(C(=O)Nc4ccc(C)cc4)c3)cc(=O)c2c(OC)c1OC in this assay?
(A) class 1

(Q) Could you please tell me the result logged for COc1cc2oc(-c3cccc(NC(=O)c4ccc(C(F)(F)F)cc4)c3)cc(=O)c2c(OC)c1OC in this assay?
(A) class 1

(Q) Could you please tell me the result logged for COc1cc2oc(-c3ccc(NC(=O)c4ccccc4Br)cc3)cc(=O)c2c(OC)c1OC in this assay?
(A) class 1

(Q) Could you please tell me the result logged for COc1cc2oc(-c3ccc(NC(=O)c4ccc(Br)cc4)cc3)cc(=O)c2c(OC)c1OC in this assay?
(A) class 0

(Q) Could you please tell me the result logged for COc1cc2oc(-c3cccc(NC(=O)c4ccc([N+](=O)[O-])cc4)c3)cc(=O)c2c(OC)c1OC in this assay?
(A) class 1

* * *

- Test system: Hs-578T
- method: Antiproliferative activity against human Hs-578T cells assessed as inhibition of cell growth at 10 uM by SRB assay
- Format: functional, cell-based
Active and inactive are the calls of the source. The rule behind the calls is not given here.
propertyMeasured: inhibition

{"smilesData": "COc1cc2oc(-c3ccc(NC(=O)c4ccc([N+](=O)[O-])cc4)cc3)cc(=O)c2c(OC)c1OC", "observed": "Active"}
{"smilesData": "COc1cc2oc(-c3ccc(NC(=O)c4ccccc4Br)cc3)cc(=O)c2c(OC)c1OC", "observed": "Active"}
{"smilesData": "COc1cc2oc(-c3ccc(NC(=O)c4ccc(C(F)(F)F)cc4)cc3)cc(=O)c2c(OC)c1OC", "observed": "Active"}

* * *

- Test system: Lung cancer cell line
- method: Antiproliferative activity against human lung cancer cells assessed as cell growth inhibition at 10 uM by SRB assay relative to control
- Format: functional
Field: inhibition at 10 µM. Provide a value for each of the compounds that follow.
Record the value in %, omitting the unit from your answer.

(Q) // returns reported inhibition at 10 µM for input COc1cc2oc(-c3cccc(C(=O)Nc4ccc(Cl)cc4)c3)cc(=O)c2c(OC)c1OC
(A) 61.5

(Q) // returns reported inhibition at 10 µM for input COc1cc2oc(-c3cccc(C(=O)Nc4ccc(C)cc4)c3)cc(=O)c2c(OC)c1OC
(A) 66.5

* * *

- Test system: SF-295
- method: Antiproliferative activity against human SF-295 cells assessed as cell growth inhibition at 10 uM by SRB assay relative to control
- Assay type: functional
propertyMeasured: inhibition at 10 µM (%)
Record the value in %, omitting the unit from your answer.

(Q) // returns reported inhibition at 10 µM for input COc1cc2oc(-c3cccc(C(=O)Nc4ccc(Cl)cc4)c3)cc(=O)c2c(OC)c1OC
(A) 142

(Q) // returns reported inhibition at 10 µM for input Cn1nnc2c(C(N)=O)ncn2c1=O [TEMOZOLOMIDE]
(A) 29.8

(Q) // returns reported inhibition at 10 µM for input COc1cc2oc(-c3cccc(C(=O)Nc4ccc(C)cc4)c3)cc(=O)c2c(OC)c1OC
(A) 147

* * *

Field: inhibition at 10 µM. Provide a value for each of the compounds that follow.
- Tested on: RXF 393
- method: Antiproliferative activity against human RXF 393 cells assessed as inhibition of cell growth at 10 uM by SRB assay relative to control
- Assay type: functional
Put down the number, then write its unit next to it.

(Q) // returns reported inhibition at 10 µM for input COc1cc2oc(-c3cccc(NC(=O)c4ccc(Br)cc4)c3)cc(=O)c2c(OC)c1OC
(A) 63.6%

(Q) // returns reported inhibition at 10 µM for input COc1cc2oc(-c3cccc(C(=O)Nc4ccc(Cl)cc4)c3)cc(=O)c2c(OC)c1OC
(A) 129%

(Q) // returns reported inhibition at 10 µM for input COc1cc2oc(-c3cccc(C(=O)Nc4ccc(Cl)cc4)c3)cc(=O)c2c(O)c1OC
(A) 53%

(Q) // returns reported inhibition at 10 µM for input COc1cc2oc(-c3cccc(NC(=O)c4ccc(Cl)cc4)c3)cc(=O)c2c(OC)c1OC
(A) 51.1%

* * *

- System: OVCAR-8
- method: Antiproliferative activity against human OVCAR-8 cells assessed as cell growth inhibition at 10 uM by SRB assay relative to control
- Assay type: functional
propertyMeasured: inhibition at 10 µM

(Q) What is its inhibition at 10 µM for OVCAR-8? Entry: COc1cc2oc(-c3cccc(C(=O)Nc4ccc(C#N)cc4)c3)cc(=O)c2c(O)c1OC
(A) 70.9%

(Q) What is its inhibition at 10 µM for OVCAR-8? Entry: COc1cc2oc(-c3cccc(NC(=O)c4ccc(Br)cc4)c3)cc(=O)c2c(OC)c1OC
(A) 52.9%

(Q) What is its inhibition at 10 µM for OVCAR-8? Entry: COc1cc2oc(-c3cccc(C(=O)Nc4ccc(C)cc4)c3)cc(=O)c2c(OC)c1OC
(A) 51.8%

(Q) What is its inhibition at 10 µM for OVCAR-8? Entry: COc1cc2oc(-c3cccc(NC(=O)c4ccc([N+](=O)[O-])cc4)c3)cc(=O)c2c(OC)c1OC
(A) 57.3%

(Q) What is its inhibition at 10 µM for OVCAR-8? Entry: COc1cc2oc(-c3cccc(C(=O)Nc4ccc(Cl)cc4)c3)cc(=O)c2c(O)c1OC
(A) 83.7%

(Q) What is its inhibition at 10 µM for OVCAR-8? Entry: COc1cc2oc(-c3cccc(C(=O)Nc4ccc(Cl)cc4)c3)cc(=O)c2c(OC)c1OC
(A) 56.9%
